system: K562; experiment: Antiproliferative activity against human K562 cells assessed as reduction in cell viability by MTT assay; format: functional, cell-based
measuredParameter: IC50 (µM)

1) COc1ccc2c(NC3CCN(Cc4ccccc4)CC3)nc(NCCNC(=O)CCCCC(=O)NO)nc2c1 5.74

----------
biological target: Histone deacetylase 2 (Homo sapiens); test: Inhibition of HDAC2 (unknown origin) by fluorescence based analysis
Sequence (Q92769 whole entry): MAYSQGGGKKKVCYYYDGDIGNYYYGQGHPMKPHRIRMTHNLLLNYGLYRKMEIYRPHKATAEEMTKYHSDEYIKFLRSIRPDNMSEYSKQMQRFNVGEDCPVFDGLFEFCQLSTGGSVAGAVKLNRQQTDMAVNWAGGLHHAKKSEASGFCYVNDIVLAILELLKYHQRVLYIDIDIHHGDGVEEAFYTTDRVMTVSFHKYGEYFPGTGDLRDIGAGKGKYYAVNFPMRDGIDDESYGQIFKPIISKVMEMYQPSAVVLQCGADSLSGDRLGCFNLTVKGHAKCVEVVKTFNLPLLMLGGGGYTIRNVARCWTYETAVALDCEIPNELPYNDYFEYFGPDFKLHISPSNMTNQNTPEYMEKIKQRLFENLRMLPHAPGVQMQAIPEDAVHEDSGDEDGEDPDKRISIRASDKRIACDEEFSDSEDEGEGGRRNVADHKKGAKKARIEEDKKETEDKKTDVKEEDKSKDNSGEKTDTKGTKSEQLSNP
pIC50: −log10 of the molar value.
measuredParameter: pIC50

1) Cc1sc2c(c1C)C(c1ccc(Cl)cc1)=N[C@@H](CC(=O)Nc1ccc(C(=O)NO)cc1)c1nnc(C)n1-2 7.28

----------
Biological target: Histone deacetylase 8 (Homo sapiens)
Sequence (Q9BY41 whole entry): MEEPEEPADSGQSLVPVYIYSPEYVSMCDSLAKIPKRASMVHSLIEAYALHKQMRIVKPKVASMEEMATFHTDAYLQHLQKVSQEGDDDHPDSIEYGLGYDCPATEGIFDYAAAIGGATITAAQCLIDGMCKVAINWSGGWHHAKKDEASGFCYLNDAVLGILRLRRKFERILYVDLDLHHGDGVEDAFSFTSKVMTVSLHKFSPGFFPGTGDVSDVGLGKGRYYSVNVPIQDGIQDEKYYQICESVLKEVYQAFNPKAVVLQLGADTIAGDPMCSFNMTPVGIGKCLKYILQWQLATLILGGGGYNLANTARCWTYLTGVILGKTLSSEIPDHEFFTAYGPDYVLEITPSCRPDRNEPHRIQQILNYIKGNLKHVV
pIC50: −log10 of the molar value.
measuredParameter: pIC50

1) Cc1sc2c(c1C)C(c1ccc(Cl)cc1)=N[C@@H](CC(=O)Nc1ccc(C(=O)NO)cc1)c1nnc(C)n1-2 6.72
